Tested on: K562 cells
Assay: Standalone cytotoxicity, WST-1 colorimetric assay, K562
Format: cell-based
Conditions: Homo sapiens; K562, 24 hrs
Description: All the cell lines were grown at density of 1×10^5 cells per ml and seeded (100 μl of cell suspension/well) on 96-well microtiter plates with or without escalating doses of SMAC-mimic compounds. Cells were incubated at 37° C. in a 5% CO2 fully humidified atmosphere and examined at 24, 48 and 72 hours for cytotoxicity with the WST-1 colorimetric assay. […] Data are expressed as mean percentage of three replicates normalized to the untreated control.
pIC50: −log10 of the molar value.
Form field: pIC50 (one value per entry).
Readout type: pIC50

>>> value_observed("CC[C@H](N)C(=O)N[C@@H]1C(=O)N2[C@@H](CC[C@@H]1CN)CC[C@H]2C(=O)NC(c1ccccc1)c1ccccc1 [Compound 26a]")
6.23
>>> value_observed("CC[C@H](N)C(=O)N[C@@H]1C(=O)N2[C@@H](CC[C@@H]1CN=[N+]=[N-])CC[C@H]2C(=O)NC(c1ccccc1)c1ccccc1 [Compound 25a]")
5.32
